This collection of values is drawn from patent US9586961B2.

# measurement.target: JAK2 (Homo sapiens)
# Construct: All four purified enzymes contain only the catalytic domain; His (N)
# Sequence (O60674 849-1124 limits assumed): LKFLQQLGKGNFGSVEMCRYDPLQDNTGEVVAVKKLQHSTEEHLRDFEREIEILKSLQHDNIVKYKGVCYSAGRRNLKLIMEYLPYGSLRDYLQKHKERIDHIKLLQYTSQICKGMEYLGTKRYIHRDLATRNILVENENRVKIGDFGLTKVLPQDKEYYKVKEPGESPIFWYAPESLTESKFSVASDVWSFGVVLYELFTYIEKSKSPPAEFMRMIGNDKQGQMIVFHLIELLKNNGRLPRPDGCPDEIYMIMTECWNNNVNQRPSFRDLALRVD
# assay.overview: JAK2 kinase assay (HTRF, inhibition of phosphorylation of a synthetic peptide)
# measurement.context: catalytic domain, His-tag; 4 μM ATP (Km); read-out: JAK2 kinase inhibitory activity (EC50)
pEC50: −log10 of the molar value.
readout: pEC50

Worked set:
compound.string	pEC50
Cc1nnsc1C(=O)N1CCN(c2ncnc3[nH]ccc23)CC2(CC2)C1	6.00 to 7.00
O=C(c1cnsc1)N1CCCN(c2ncnc3[nH]ccc23)CC12CC2	6.00 to 7.00
O=C(c1ccnnc1)N1CCN(c2ncnc3[nH]ccc23)CC2(CC2)C1	6.00 to 7.00
O=C(c1cnon1)N1CCCN(c2ncnc3[nH]ccc23)CC12CC2	6.00 to 7.00
Cc1cnc(C(=O)N2CCCN(c3ncnc4[nH]ccc34)CC23CC3)cn1	6.00 to 7.00

Query string: For the compound shown here, O=C(Cc1cccs1)N1CCN(c2ncnc3[nH]ccc23)CC2(CC2)C1 , give the reported pEC50.
Result string: > 7.00

Query string: For the compound shown here, O=C(c1cscn1)N1CCN(c2ncnc3[nH]ccc23)CC2(CC2)C1 , give the reported pEC50.
Result string: 6.00 to 7.00

Query string: For the compound shown here, N#Cc1cccc(CCC(=O)N2CCN(c3ncnc4[nH]ccc34)CC3(CC3)C2)c1 , give the reported pEC50.
Result string: > 7.00

Query string: For the compound shown here, N#CCCNS(=O)(=O)c1ccc(C(=O)N2CCN(c3ncnc4[nH]ccc34)CC3(CC3)C2)cc1 , give the reported pEC50.
Result string: 6.00 to 7.00

---

# measurement.target: TYK2 (Homo sapiens)
# Construct: JAK1 (aa 850-1154) and TYK2 (aa 871-1187) are expressed with an N-terminally fused GST-tag; GST (N)
# Sequence (P29597 871-1187): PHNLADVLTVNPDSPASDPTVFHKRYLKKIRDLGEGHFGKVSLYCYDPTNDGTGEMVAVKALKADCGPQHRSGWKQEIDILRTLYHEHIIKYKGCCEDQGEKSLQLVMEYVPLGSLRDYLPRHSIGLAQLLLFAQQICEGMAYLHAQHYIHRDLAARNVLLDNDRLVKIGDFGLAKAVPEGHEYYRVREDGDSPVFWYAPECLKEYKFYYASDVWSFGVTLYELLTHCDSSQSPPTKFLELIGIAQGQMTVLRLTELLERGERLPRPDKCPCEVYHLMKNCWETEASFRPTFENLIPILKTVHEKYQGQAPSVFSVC
# assay.overview: TYK2 kinase assay (HTRF, inhibition of phosphorylation of a synthetic peptide)
# measurement.context: catalytic domain aa 871-1187, GST-tag; 13 μM ATP (Km); read-out: TYK2 kinase inhibitory activity (EC50)
Listed here: items and their measured EC50.

Query string: For the molecule shown here, N#CCc1ccccc1C(=O)N1CCN(c2ncnc3[nH]ccc23)CCC12CC2 [Example 48] , give the reported EC50.
Result string: > 1000 nM

Query string: For the molecule shown here, Cc1cc(C(=O)N2CCCN(c3ncnc4[nH]ccc34)CC23CC3)no1 [Example 141] , give the reported EC50.
Result string: 100 to 1000 nM

Query string: For the molecule shown here, N#Cc1ccc(C(=O)N2CCCN(c3ncnc4[nH]ccc34)CC23CC3)o1 [Example 258] , give the reported EC50.
Result string: 100 to 1000 nM

Query string: For the molecule shown here, N#Cc1ccc(C(=O)C(=O)N2CCN(c3ncnc4[nH]ccc34)CC3(CC3)C2)cc1 [Example 100] , give the reported EC50.
Result string: > 1000 nM

Query string: For the molecule shown here, CCN(CC)S(=O)(=O)N1CCN(c2ncnc3[nH]ccc23)CC2(CC2)C1 [Example 104] , give the reported EC50.
Result string: > 1000 nM

Query string: For the molecule shown here, Cc1sc(C(=O)N2CCN(c3ncnc4[nH]ccc34)CC3(CC3)C2)cc1S(N)(=O)=O [Example 24] , give the reported EC50.
Result string: 100 to 1000 nM

Query string: For the molecule shown here, NS(=O)(=O)c1ccc(C(=O)N2CCN(c3ncnc4[nH]ccc34)CC3(CC3)C2)cc1 [Example 31] , give the reported EC50.
Result string: 100 to 1000 nM

Query string: For the molecule shown here, Cc1ccc(C(=O)N2CCN(c3ncnc4[nH]ccc34)CC3(CC3)C2)cc1S(N)(=O)=O [Example 38] , give the reported EC50.
Result string: 100 to 1000 nM

Query string: For the molecule shown here, CN(C)S(=O)(=O)c1ccc(C(=O)N2CCN(c3ncnc4[nH]ccc34)CC3(CC3)C2)cc1 [Example 33] , give the reported EC50.
Result string: > 1000 nM

Query string: For the molecule shown here, NS(=O)(=O)c1ccc(CC(=O)N2CCN(c3ncnc4[nH]ccc34)CC3(CC3)C2)s1 [Example 76] , give the reported EC50.
Result string: 100 to 1000 nM

Query string: For the molecule shown here, COc1ncccc1C(=O)N1CCN(c2ncnc3[nH]ccc23)CC2(CC2)C1 [Example 4] , give the reported EC50.
Result string: > 1000 nM

Query string: For the molecule shown here, CCCCN1CCN(c2ncnc3[nH]ccc23)CC2(CC2)C1 [Example 279] , give the reported EC50.
Result string: > 1000 nM

Query string: For the molecule shown here, c1ccc(CN2CCN(c3ncnc4[nH]ccc34)CC3(CC3)C2)cc1 [Example 107] , give the reported EC50.
Result string: > 1000 nM

Query string: For the molecule shown here, O=C(c1cc2ccccc2s1)N1CCN(c2ncnc3[nH]ccc23)CC2(CC2)C1 [Example 18] , give the reported EC50.
Result string: > 1000 nM

Query string: For the molecule shown here, CC1CN(c2ncnc3[nH]ccc23)CC2(CC2)CN1C(=O)Cc1ccc(C#N)cc1 (centres unmarked) [Example 286] , give the reported EC50.
Result string: > 1000 nM

Query string: For the molecule shown here, COc1cccc(C(=O)N2CCN(c3ncnc4[nH]ccc34)CC3(CC3)C2)c1OC [Example 2] , give the reported EC50.
Result string: > 1000 nM

Query string: For the molecule shown here, N#Cc1cccc(CC(=O)N2CCN(c3ncnc4[nH]ccc34)CCC23CC3)c1 [Example 47] , give the reported EC50.
Result string: > 1000 nM
